All values here come from paper PMC3570547.

molecular target: TBP (TATA-binding protein, hTBP) (Homo sapiens, UniProt P20226 1-339); assay: EMSA; Fixed active TBP (typically 0.3 nM) titrated with 32P dsDNA to equilibrium; buffer, salt, pH and temperature not given in the material; details: protein: recombinant; label: 32P both strands; blunt
Sequence (P20226 whole entry): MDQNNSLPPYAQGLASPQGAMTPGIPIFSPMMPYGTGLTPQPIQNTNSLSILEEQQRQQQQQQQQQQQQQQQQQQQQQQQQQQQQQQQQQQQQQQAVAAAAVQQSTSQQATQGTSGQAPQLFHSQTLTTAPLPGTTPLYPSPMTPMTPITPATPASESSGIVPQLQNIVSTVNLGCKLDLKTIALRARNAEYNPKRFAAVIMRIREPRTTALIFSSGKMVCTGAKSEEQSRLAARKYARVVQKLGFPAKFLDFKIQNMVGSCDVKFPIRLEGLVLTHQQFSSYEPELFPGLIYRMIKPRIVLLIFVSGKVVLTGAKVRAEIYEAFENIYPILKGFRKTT
In plain terms, low Kd, meaning strictly below 60 nM, gives 1, and everything else gives 0.

Query string: Report whether reported Kd is lower than 60 nM (strictly) for FIX TATA WT (dsDNA) DNA 1: ACAGCTCAGCTTGTACTTTGGTACAA DNA 2: TTGTACCAAAGTACAAGCTGAGCTGT
Result string: 0

Query string: Report whether reported Kd is lower than 60 nM (strictly) for IL1B -31C>T (dsDNA) DNA 1: TTTTGAAAGCTATAAAAACAGCGAGG DNA 2: CCTCGCTGTTTTTATAGCTTTCAAAA
Result string: 1

Query string: Report whether reported Kd is lower than 60 nM (strictly) for TF TATA WT (-21C) (dsDNA) DNA 1: GCCGGCCCTTTATAGCGCGCGGGGCA DNA 2: TGCCCCGCGCGCTATAAAGGGCCGGC
Result string: 0

Query string: Report whether reported Kd is lower than 60 nM (strictly) for NOS2A TATA WT (dsDNA) DNA 1: ATGGGGTGAGTATAAATACTTCTTGG DNA 2: CCAAGAAGTATTTATACTCACCCCAT
Result string: 1

Query string: Report whether reported Kd is lower than 60 nM (strictly) for globin pseudogene -70T>C (dsDNA) DNA 1: CTGCCACACCCACATTATCAGAAAAT DNA 2: ATTTTCTGATAATGTGGGTGTGGCAG
Result string: 0

Query string: Report whether reported Kd is lower than 60 nM (strictly) for MBL2 TATA WT (dsDNA) DNA 1: CATCTATTTCTATATAGCCTGCACCC DNA 2: GGGTGCAGGCTATATAGAAATAGATG
Result string: 1

Query string: Report whether reported Kd is lower than 60 nM (strictly) for HBB -30T>C (dsDNA) DNA 1: CAGGGCTGGGCACAAAAGTCAGGGCA DNA 2: TGCCCTGACTTTTGTGCCCAGCCCTG
Result string: 0

Query string: Report whether reported Kd is lower than 60 nM (strictly) for TPI TATA WT (dsDNA) DNA 1: CGCGGCGCTCTATATAAGTGGGCAGT DNA 2: ACTGCCCACTTATATAGAGCGCCGCG
Result string: 1

Query string: Report whether reported Kd is lower than 60 nM (strictly) for HBB -30T>A (dsDNA) DNA 1: CAGGGCTGGGCAAAAAAGTCAGGGCA DNA 2: TGCCCTGACTTTTTTGCCCAGCCCTG
Result string: 0

Query string: Report whether reported Kd is lower than 60 nM (strictly) for HBB -27A>T (dsDNA) DNA 1: CAGGGCTGGGCATAATAGTCAGGGCA DNA 2: TGCCCTGACTATTATGCCCAGCCCTG
Result string: 0
